- Species: Rattus norvegicus
- run description: DrugMatrix - Regimen: Daily Repeat
- Format: toxicity, organism-based, Sprague-Dawley
- Parameters: regimen Daily Repeat, gender Male, age 6-8 weeks
- details: in vivo, po, 0 mg/kg, 72 h, tissue Plasma, route oral GAVAGE, dose level Control, time 3 day, vehicle .5 % CMC
Kindly return satisfied if reported ASPARTATE AMINOTRANSFERASE is no lower than 70 u/L; return not satisfied if it is lower.

molecule	assigned class
Nc1ccc(C(=O)O)c(O)c1	not satisfied
CC(C)(C#N)c1cc(Cn2cncn2)cc(C(C)(C)C#N)c1	satisfied
O=C(O)CCc1nc(-c2ccccc2)c(-c2ccccc2)o1	satisfied
CCN1CCCC1CNC(=O)c1cc(S(N)(=O)=O)ccc1OC (configuration not stated) [SULPIRIDE]	satisfied
CC(C)NCC(O)COc1ccc(CC(N)=O)cc1 (configuration not stated)	not satisfied
COc1cc(/C=C/C(=O)O)ccc1O [FERULATE]	satisfied
CC(C)Cc1ccc([C@H](C)C(=O)O)cc1	not satisfied
